test: AP1 Signaling Pathway (AID 357); conditions: ME-180 (cervical carcinoma) AP-1-bla reporter, EGF-induced, beta-lactamase ratio, 5 h; at 17.2 µM (top of the series) unless noted;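 also: ME-180 reporter cells stimulated with EGF at its EC50 level; % is scaled to controls: 0 for no effect and ±100 for the full control effect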
Records with an inconclusive call do not appear.
readout type: activity change, negative = inhibition (%)
The reply should contain only the number, in %.

QUERY: Which activity change, negative = inhibition is reported for this molecule? COC(=O)C1=C(N)Oc2cc(C)[nH]c(=O)c2C1c1ccncc1 (stereo unspecified)
RESULT: -8.66

QUERY: For the molecule shown here, O=c1c2ccccc2ncn1Cc1ccco1 , give the reported activity change, negative = inhibition.
RESULT: 14.1

QUERY: Returns the measured activity change, negative = inhibition for the input molecule. Input: CC(C)Nc1nc(NC(C)C)nc(N(C)n2cnnc2)n1
RESULT: 9.58

QUERY: Item CC(=O)CCn1c(=O)n(CCC(C)=O)c(=O)n(CCC(C)=O)c1=O has what recorded activity change, negative = inhibition?
RESULT: 5.12

QUERY: Dear colleague, I am looking for the recorded activity change, negative = inhibition of the following molecule: CCN(CC)CCN1C(=O)C(=O)/C(=C(/O)c2ccc(F)cc2)C1c1cccnc1 (stereo unspecified)
RESULT: 12.6

QUERY: What value of measured activity change, negative = inhibition is listed for COc1ccccc1C(=O)N1CCN(Cc2ccc3c(c2)OCO3)CC1 ?
RESULT: -11.7

---

tested on: CP325; test: qHTS profiling for inhibitors of Plasmodium falciparum proliferation (AID 504749); also: nearly all actives have a fitted effect of over 60% in size; details: P. falciparum in erythrocytes, SYBR Green DNA, 72 h; series mostly up to 28.7 µM
Inconclusive results are not listed. Calls of active or inactive are those of the source. Calls follow the shape of the dose curve; as a rule, active = well fitted inhibition curve with a large enough effect; inconclusive = small, poorly fitted or top-dose-only effect; inactive = flat fitted curve, though single readings scatter.
Select the matching outcome among active, inactive

>  <molecule>
CC(CN1CC(=O)NC(=O)C1)N1CC(=O)NC(=O)C1 (stereo not given)

>  <class name>
inactive

$$$$
>  <molecule>
CC(=O)NC[C@@H]1CN(c2ccc(N3CCOCC3)c(F)c2)C(=O)O1

>  <class name>
inactive

$$$$
>  <molecule>
CCCCCCCCCCCC(=O)OCC(O)C1OCC(O)C1O (stereo not given)

>  <class name>
inactive

$$$$

QUERY: Hi, sorry to bother you, what did the test record for O=C(O)C(O)c1ccccc1 (stereo not given) ?
RESULT: inactive

QUERY: Look up the recorded call for O=C(O)CC(O)CC(O)/C=C/c1c(C2CC2)nc2ccccc2c1-c1ccc(F)cc1 (stereo not given) in this test.
RESULT: inactive

QUERY: Identify the outcome logged in this assay for the molecule shown: CCC(=O)O[C@]1(C(=O)CCl)[C@@H](C)CC2C3C[C@H](F)C4=CC(=O)C=CC4(C)[C@@]3(F)C(O)CC21C (stereo not given in full)
RESULT: active

QUERY: I would be grateful if you could indicate the recorded call for C[C@H]1[C@@H](OC(=O)CCC(=O)O)OC2OC3(C)CC[C@H]4[C@H](C)CC[C@@H]1[C@@]24OO3 (stereo not given in full) .
RESULT: active

QUERY: For CO/N=C(/C(=O)N[C@@H]1C(=O)N2C(C(=O)O)=C(CSc3nnnn3C)CS[C@H]12)c1csc(N)n1 , which call appears in the assay record?
RESULT: inactive

QUERY: Status in this test for O=C(O)C[CH2][Ge](=[O])[O][Ge](=[O])[CH2]CC(=O)O ?
RESULT: inactive

QUERY: I would be grateful if you could indicate the recorded call for CO[C@H]1OC2O[C@@]3(C)CC[C@H]4[C@H](C)CC[C@@H]([C@H]1C)[C@@]24OO3 (stereo not given in full) .
RESULT: active

QUERY: Hi, sorry to bother you, what did the test record for CC(C)CCCC(C)C1CC(=O)C2=C3CCC4CC(O)CCC4(C)C3CCC21C (stereo not given) ?
RESULT: inactive

The reported measurements were obtained from PubChem BioAssay (NCATS).
